Entry source: ChEMBL document CHEMBL1201862

# System: MDA-MB-231
# EXPERIMENT_NOTES: NCI tumour cell line growth inhibition, 48 h
The source made the active and inactive calls. Rule as the data show it: active = GI50 up to about 1.1 µM and inactive = higher.
REPORTED_METRIC: GI50

CSC(=S)N/N=C(\C)c1ccc(S(=O)(=O)N(C)c2ccccc2)cc1 = 98.4 µM (inactive)
C=C(C)C(=O)OC1C(C(C)CCCO)=C(CO)CC2OC(=O)C(=C)C21 (stereo unspecified) = 17.5 µM (inactive)
OCC1OC(n2nc(-c3ccccc3)nc2-c2cnccn2)C(O)C(O)C1O (stereo unspecified) = > 100 µM (inactive)
Cc1cn(CCC(N)C(=O)O)c(=O)[nH]c1=O (stereo unspecified) = > 100 µM (inactive)

# get_value(readout='GI50', item= N=C1N(c2ccccc2)C(=S)/C(=N/c2ccccc2)N1c1ccccc1 ) 8.73 µM (inactive)

# get_value(readout='GI50', item= CO/C(C)=N/CCC1=CCCCC1 ) > 100 µM (inactive)

* * *

# Test system: SK-MEL-2
# EXPERIMENT_NOTES: NCI tumour cell line growth inhibition, 48 h
Active and inactive are the calls of the source. Rule as the data show it: active = GI50 up to about 1.1 µM and inactive = higher.
REPORTED_METRIC: GI50

Field: example entries. Status: answers known.
Cc1cc(NS(=O)(=O)c2ccc(NO)cc2)no1 = > 100 µM (inactive)
COCC1N=C(c2ccc(OC)c(OCc3ccccc3)c2OC)O[C@H]1c1ccccc1 (stereo not given in full) = 23.4 µM (inactive)
CCOC1=NC(C(F)(F)F)(C(F)(F)F)N=C(/N=C(/N)N(C)C(C(C)C)P(=O)(OC(C)C)OC(C)C)O1 (stereo not given) = 91.4 µM (inactive)
COc1ccc(N2C=Nn3c(nc4sc(C)c(C)c4c3=O)C2)cc1 = > 100 µM (inactive)
CN(C)/C(=N\C#N)N(Cc1ccccc1)Cc1ccccc1 = > 100 µM (inactive)

# get_value(readout='GI50', item= Cn1cc(-c2ccc3c4ccccc4n(C)c3c2)c2ccccc21 ) > 100 µM (inactive)

* * *

# Test system: HCC 2998
# EXPERIMENT_NOTES: NCI tumour cell line growth inhibition, 48 h
Active and inactive are the calls of the source. Rule as the data show it: active = GI50 up to about 1.1 µM and inactive = higher.
REPORTED_METRIC: GI50

Field: example entries. Status: answers known.
CC(C)C.C[N+](C)(C)C.OC(c1ccccc1)(C(F)(F)F)C(F)(F)F.OC(c1ccccc1)(C(F)(F)F)C(F)(F)F.[SiH3-] = 3.56 µM (inactive)
O=C1OC2(C(F)(F)F)Oc3ccccc3CN2C12CCCCC2 (configuration not stated) = 33.1 µM (inactive)

Hi! What's the reported GI50 for NCCCN1CCN(CC(=O)O)CCN(CCCN)CCN(CC(=O)O)CC1 on HCC 2998? 19.5 µM (inactive)

Hi! What's the reported GI50 for CCOC(=O)c1cc(NC(=O)c2ccccc2)c(=O)n2c(cc3c(Cl)cccc32)c1O on HCC 2998? > 100 µM (inactive)

Hi! What's the reported GI50 for CCOC(=O)c1ncoc1[C@H]1COC(C)(C)O1 on HCC 2998? > 100 µM (inactive)

Hi! What's the reported GI50 for Cc1ccc2c(c1)Nc1ccccc1P2(=O)O on HCC 2998? > 100 µM (inactive)

Hi! What's the reported GI50 for C=C1[C@@](C)([C@@H]2CCCS2)[C@H]2C(C)=C[C@]1(C)n1c(=O)n(-c3ccccc3)c(=O)n12 on HCC 2998? > 100 µM (inactive)
